FYI, the data here is from patent US8765755B2.

endpointName: IC50

Simply: `CS(=O)(=O)Nc1cccc(-c2csc3cnc(Nc4ccc(N5CCOCC5)cc4)nc23)c1` , human JAK3 (Homo sapiens, UniProt P52333), IC50 = < 100 nM

Short answer on human JAK3 (Homo sapiens, UniProt P52333) for `CN1CCN(c2ccc(-c3csc4cnc(Nc5ccc(CN6CCOCC6)cc5)nc34)cc2)CC1` , IC50: < 500 nM

Summary: `COc1ccc(-c2csc3cnc(Nc4ccc(OC)c(OC)c4)nc23)c(OC)n1` , human JAK3 (Homo sapiens, UniProt P52333), IC50 = < 100 nM

Value sought: IC50, system human JAK3 (Homo sapiens, UniProt P52333), item `CS(=O)(=O)N(CC#N)c1cccc(-c2csc3cnc(Nc4ccc(N5CCOCC5)cc4)nc23)c1` . Result: < 100 nM
